- System: Mr 75000-85000 protein (Mus musculus, UniProt P21729)
- Construct: endogenous in cells; host or cells: Swiss 3T3 cells (intact, confluent and quiescent)
- Sequence (P21729 whole entry): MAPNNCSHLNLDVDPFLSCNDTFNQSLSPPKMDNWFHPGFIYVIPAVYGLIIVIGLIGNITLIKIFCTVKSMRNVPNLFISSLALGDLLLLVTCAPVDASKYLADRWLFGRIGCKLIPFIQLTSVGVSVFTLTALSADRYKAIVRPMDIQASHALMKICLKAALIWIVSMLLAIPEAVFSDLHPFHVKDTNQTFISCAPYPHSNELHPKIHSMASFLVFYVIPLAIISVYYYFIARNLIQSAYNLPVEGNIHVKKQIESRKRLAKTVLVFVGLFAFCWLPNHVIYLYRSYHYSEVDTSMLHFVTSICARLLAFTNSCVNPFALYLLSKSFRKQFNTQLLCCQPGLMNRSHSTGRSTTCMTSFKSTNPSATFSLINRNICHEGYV
- Procedure text: ^125 I-GRP affinity labelling (EGS cross-linking) of the Mr 75000-85000 protein in Swiss 3T3 cells
- Format: binding
- Condition details: ^125 I-GRP 0.5 nM, 15° C., 2.5 h, EGS; each addition at its own concentration
Non-standard residues stand in square brackets, D forms with d. Residues, ends and D or L forms follow the SMILES beside them.
Endpoint label: Mr 75000-85000 protein % of control

C[C@H](N)C(=O)NCC(=O)N[C@H]1CSSC[C@@H](C(=O)O)NC(=O)[C@H](CO)NC(=O)[C@H]([C@@H](C)O)NC(=O)[C@H](Cc2ccccc2)NC(=O)[C@H]([C@@H](C)O)NC(=O)[C@H](CCCCN)NC(=O)[C@H](Cc2c[nH]c3ccccc23)NC(=O)[C@H](Cc2ccccc2)NC(=O)[C@H](Cc2ccccc2)NC(=O)[C@H](CC(N)=O)NC(=O)[C@H](CCCCN)NC1=O [Somatostatin] : 97 % of control
NC(=O)CC[C@@H]1NC(=O)[C@H](Cc2ccccc2)NC(=O)[C@H](Cc2ccc(O)cc2)NC(=O)[C@@H](N)CSSC[C@@H](C(=O)N2CCC[C@H]2C(=O)N[C@@H](CCCN=C(N)N)C(=O)NCC(N)=O)NC(=O)[C@H](CC(N)=O)NC1=O [Vasopressin] : 94 % of control
CSCC[C@H](NC(=O)[C@H](CC(C)C)NC(=O)CNC(=O)[C@H](Cc1ccccc1)NC(=O)[C@H](Cc1ccccc1)NC(=O)[C@H](CCC(N)=O)NC(=O)[C@H](CCC(N)=O)NC(=O)[C@@H]1CCCN1C(=O)[C@H](CCCCN)NC(=O)[C@@H]1CCCN1C(=O)[C@@H](N)CCCNC(=N)N)C(N)=O [Substance P] : 91 % of control

// next item, Mr 75000-85000 protein % of control requested
In: Param item = CC(C)C[C@H](NC(=O)[C@H](CC(C)C)NC(=O)[C@@H](Cc1c[nH]c2ccccc12)NC(=O)[C@H](Cc1ccccc1)NC(=O)[C@@H](Cc1c[nH]c2ccccc12)NC(=O)[C@H](CCC(N)=O)NC(=O)[C@H](CCC(N)=O)NC(=O)[C@@H]1CCCN1C(=O)[C@H](CCCCN)NC(=O)[C@H]1CCCN1C(=O)[C@H](N)CCCNC(=N)N)C(N)=O [Antagonist A] (H-[dR][dP]KPQQ[dW]F[dW]LL-NH2) ; retrieve measured Mr 75000-85000 protein % of control.
Out: 9.7 % of control
